Recorded values, source ChEMBL document CHEMBL1914452.

molecular target: 5-hydroxytryptamine receptor 7 (Homo sapiens, UniProt P34969); assay: Displacement of [3H]-5-CT from human 5-HT7 receptor expressed in HEK293 cells after 1 hr by liquid scintillation counting; assay type: cell-based
Sequence (P34969 whole entry): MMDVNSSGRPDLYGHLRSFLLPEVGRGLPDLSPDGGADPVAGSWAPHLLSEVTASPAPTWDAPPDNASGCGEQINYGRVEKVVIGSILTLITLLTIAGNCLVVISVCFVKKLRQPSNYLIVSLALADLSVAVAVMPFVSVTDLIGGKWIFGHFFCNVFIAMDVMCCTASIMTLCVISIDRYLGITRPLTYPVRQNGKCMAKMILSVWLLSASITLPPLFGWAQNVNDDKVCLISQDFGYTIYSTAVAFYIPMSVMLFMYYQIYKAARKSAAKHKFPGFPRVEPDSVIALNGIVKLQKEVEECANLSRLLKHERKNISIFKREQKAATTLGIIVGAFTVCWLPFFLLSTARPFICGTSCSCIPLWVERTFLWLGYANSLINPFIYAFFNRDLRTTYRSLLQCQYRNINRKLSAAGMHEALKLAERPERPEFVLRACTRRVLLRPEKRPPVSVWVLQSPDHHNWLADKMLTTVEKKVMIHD

{"columns": ["Molecular String", "Ki [nM]"],
 "data": [
  ["COc1ccccc1N1CCN(CCCNS(=O)(=O)c2cccc3cccnc23)CC1", 90],
  ["COc1ccccc1N1CCN(CCCCNS(=O)(=O)c2cccc3cccnc23)CC1", 55],
  ["O=S(=O)(NCCCCN1CCc2ccccc2C1)c1ccccc1", 94],
  ["NCCCN(CCCN1CCc2ccccc2C1)S(=O)(=O)c1ccccc1", 335],
  ["NCCN(CCCN1CCc2ccccc2C1)S(=O)(=O)c1ccccc1", 267],
  ["O=S(=O)(NCCCCN1CCc2ccccc2C1)c1cnc2ccccc2c1", 228],
  ["NCCCN(CCN1CCc2ccccc2C1)S(=O)(=O)c1ccccc1", 3010],
  ["CCN(CCCCN1CCN(c2ccccc2OC)CC1)S(=O)(=O)c1cccc2cccnc12", 37],
  ["COc1ccccc1N1CCN(CCCCNS(=O)(=O)c2cnc3ccccc3c2)CC1", 79],
  ["COc1ccccc1N1CCN(CCCCNS(=O)(=O)c2ccc3ncccc3c2)CC1", 132],
  ["O=S(=O)(NCCCN1CCc2ccccc2C1)c1ccc2ccccc2c1", 80],
  ["CCN(CCCN1CCN(c2ccccc2OC)CC1)S(=O)(=O)c1ccc(C)cc1", 19]
]}

###

The molecules below have reported pKi for 5-hydroxytryptamine receptor 2A (Rattus norvegicus, UniProt P14842).
pKi: −log10 of the molar value.

{"columns": ["Molecule", "Test System", "pKi"],
 "data": [
  ["O=S(=O)(NCCCCN1CCc2ccccc2C1)c1ccc2ncccc2c1", "5-hydroxytryptamine receptor 2A (Rattus norvegicus, UniProt P14842)", 5.82],
  ["CCN(CCCCN1CCC2CCCCC2C1)S(=O)(=O)c1cnc2ccccc2c1 (configuration not stated)", "5-hydroxytryptamine receptor 2A (Rattus norvegicus, UniProt P14842)", 5.29],
  ["O=S(=O)(NCCCCN1CCc2ccccc2C1)c1cccc2cccnc12", "5-hydroxytryptamine receptor 2A (Rattus norvegicus, UniProt P14842)", 5.38],
  ["COc1ccccc1N1CCN(CCCNS(=O)(=O)c2cccc3cccnc23)CC1", "5-hydroxytryptamine receptor 2A (Rattus norvegicus, UniProt P14842)", 5.67],
  ["O=S(=O)(NCCCCN1CCc2sccc2C1)c1ccc2cccnc2c1", "5-hydroxytryptamine receptor 2A (Rattus norvegicus, UniProt P14842)", 5.58],
  ["COc1ccccc1N1CCN(CCCNS(=O)(=O)c2ccc3ncccc3c2)CC1", "5-hydroxytryptamine receptor 2A (Rattus norvegicus, UniProt P14842)", 6.08],
  ["CCN(CCCCN1CCC2CCCCC2C1)S(=O)(=O)c1cccc2cccnc12 (configuration not stated)", "5-hydroxytryptamine receptor 2A (Rattus norvegicus, UniProt P14842)", 5.20]
]}

###

Data export: Ki values recorded with 5-hydroxytryptamine receptor 6 (Homo sapiens).
Sequence (P50406 whole entry): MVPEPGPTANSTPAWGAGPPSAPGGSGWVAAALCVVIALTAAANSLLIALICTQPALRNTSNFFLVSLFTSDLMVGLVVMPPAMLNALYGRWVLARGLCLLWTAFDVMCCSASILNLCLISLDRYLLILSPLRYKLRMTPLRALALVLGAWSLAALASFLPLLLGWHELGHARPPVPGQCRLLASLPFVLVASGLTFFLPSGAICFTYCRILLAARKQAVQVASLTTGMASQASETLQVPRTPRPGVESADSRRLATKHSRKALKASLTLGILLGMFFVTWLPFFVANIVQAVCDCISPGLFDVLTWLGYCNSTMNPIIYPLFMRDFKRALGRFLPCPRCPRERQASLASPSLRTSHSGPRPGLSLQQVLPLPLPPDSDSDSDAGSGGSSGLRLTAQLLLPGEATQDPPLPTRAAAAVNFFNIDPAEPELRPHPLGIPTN

{"columns": ["Molecule", "Test System", "Ki, µM"],
 "data": [
  ["COc1ccccc1N1CCN(CCCNS(=O)(=O)c2ccc3ncccc3c2)CC1", "5-hydroxytryptamine receptor 6 (Homo sapiens)", 2.84],
  ["CCN(CCCCN1CCC2CCCCC2C1)S(=O)(=O)c1cccc2cccnc12 (stereo unspecified)", "5-hydroxytryptamine receptor 6 (Homo sapiens)", 1.95],
  ["CCN(CCCCN1CCC2CCCCC2C1)S(=O)(=O)c1cnc2ccccc2c1 (stereo unspecified)", "5-hydroxytryptamine receptor 6 (Homo sapiens)", 14.5],
  ["O=S(=O)(NCCCCN1CCc2sccc2C1)c1cnc2ccccc2c1", "5-hydroxytryptamine receptor 6 (Homo sapiens)", 17.4],
  ["O=S(=O)(NCCCCN1CCc2ccccc2C1)c1cnc2ccccc2c1", "5-hydroxytryptamine receptor 6 (Homo sapiens)", 8.63],
  ["O=S(=O)(NCCCCN1CCc2sccc2C1)c1ccc2cccnc2c1", "5-hydroxytryptamine receptor 6 (Homo sapiens)", 17.5]
]}

###

# maps each entry to its Ki
Target: 5-hydroxytryptamine receptor 1A (Rattus norvegicus, UniProt P19327)
Sequence (P19327 whole entry): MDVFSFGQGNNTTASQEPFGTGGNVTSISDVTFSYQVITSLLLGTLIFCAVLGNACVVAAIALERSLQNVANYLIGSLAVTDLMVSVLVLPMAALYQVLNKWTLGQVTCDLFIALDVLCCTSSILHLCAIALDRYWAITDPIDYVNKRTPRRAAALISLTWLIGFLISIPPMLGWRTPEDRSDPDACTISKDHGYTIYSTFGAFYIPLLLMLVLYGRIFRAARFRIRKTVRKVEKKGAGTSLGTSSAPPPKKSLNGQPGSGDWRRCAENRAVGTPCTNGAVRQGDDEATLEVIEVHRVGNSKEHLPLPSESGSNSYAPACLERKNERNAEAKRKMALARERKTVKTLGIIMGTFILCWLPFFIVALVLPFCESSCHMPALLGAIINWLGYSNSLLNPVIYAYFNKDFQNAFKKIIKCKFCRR

{"columns": ["Molecule", "Test System", "Ki, µM"],
 "data": [
  ["O=S(=O)(NCCCCN1CCC2CCCCC2C1)c1cnc2ccccc2c1 (stereo unspecified)", "5-hydroxytryptamine receptor 1A (Rattus norvegicus, UniProt P19327)", 1.45],
  ["COc1ccccc1N1CCN(CCCCNS(=O)(=O)c2ccc3ncccc3c2)CC1", "5-hydroxytryptamine receptor 1A (Rattus norvegicus, UniProt P19327)", 0.04],
  ["COc1ccccc1N1CCN(CCCNS(=O)(=O)c2ccc3ncccc3c2)CC1", "5-hydroxytryptamine receptor 1A (Rattus norvegicus, UniProt P19327)", 0.018],
  ["CCN(CCCCCN1CCC2CCCCC2C1)S(=O)(=O)c1cccc2cccnc12 (stereo unspecified)", "5-hydroxytryptamine receptor 1A (Rattus norvegicus, UniProt P19327)", 0.313],
  ["CCN(CCCN1CCN(c2ccccc2OC)CC1)S(=O)(=O)c1ccc2ncccc2c1", "5-hydroxytryptamine receptor 1A (Rattus norvegicus, UniProt P19327)", 0.025],
  ["CCN(CCCCN1CCN(c2ccccc2OC)CC1)S(=O)(=O)c1cccc2cccnc12", "5-hydroxytryptamine receptor 1A (Rattus norvegicus, UniProt P19327)", 0.03],
  ["COc1ccccc1N1CCN(CCCCNS(=O)(=O)c2cccc3cccnc23)CC1", "5-hydroxytryptamine receptor 1A (Rattus norvegicus, UniProt P19327)", 0.053],
  ["O=S(=O)(NCCCN1CCC2CCCCC2C1)c1ccc2ncccc2c1 (stereo unspecified)", "5-hydroxytryptamine receptor 1A (Rattus norvegicus, UniProt P19327)", 4.31],
  ["CCN(CCCCN1CCN(c2ccccc2OC)CC1)S(=O)(=O)c1ccc2ncccc2c1", "5-hydroxytryptamine receptor 1A (Rattus norvegicus, UniProt P19327)", 0.021],
  ["O=S(=O)(NCCCCN1CCc2ccccc2C1)c1cccc2cccnc12", "5-hydroxytryptamine receptor 1A (Rattus norvegicus, UniProt P19327)", 0.271],
  ["CCN(CCCCN1CCN(c2ccccc2OC)CC1)S(=O)(=O)c1cnc2ccccc2c1", "5-hydroxytryptamine receptor 1A (Rattus norvegicus, UniProt P19327)", 0.0093]
]}
